- test_system: Cellular tumor antigen p53 (Homo sapiens) (UniProt P04637)
- Sequence (P04637 whole entry, looked up): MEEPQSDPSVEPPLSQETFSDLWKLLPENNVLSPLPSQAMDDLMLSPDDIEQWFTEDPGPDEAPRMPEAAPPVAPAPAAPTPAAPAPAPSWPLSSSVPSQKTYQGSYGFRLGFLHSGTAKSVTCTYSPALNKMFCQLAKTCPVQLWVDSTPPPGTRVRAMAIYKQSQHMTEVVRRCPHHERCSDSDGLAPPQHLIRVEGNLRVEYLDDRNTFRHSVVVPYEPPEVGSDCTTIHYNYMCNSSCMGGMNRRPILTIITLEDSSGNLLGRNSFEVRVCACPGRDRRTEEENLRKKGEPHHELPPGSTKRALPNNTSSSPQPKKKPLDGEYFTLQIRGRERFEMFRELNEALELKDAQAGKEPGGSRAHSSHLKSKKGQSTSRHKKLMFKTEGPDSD
- test_description: TOX21_p53_BLA_p2_ratio: Tox21 HCT-116 p53 Agonism Beta-lactamase Assay, Ratio, Phase 2 (AID 2283592)
Results filed as inconclusive are left out. Calls of active or inactive are those of the source. Rule for the calls: active = hit-call score of the fitted dose curve at least 0.9, where 1 is the maximum; inconclusive = response in the unintended direction; inactive = score below 0.9.
The reply should be one of these categories: 1 for active, 0 for inactive

compound: CCCCOC(=O)COC(=O)c1ccccc1C(=O)OCCCC
group_label: 0
//
compound: CC(c1ccc(O)cc1)c1ccc(O)cc1
group_label: 0
//
compound: C=CC(=O)[O][Sn]([CH2]CCC)([CH2]CCC)[CH2]CCC
group_label: 1
//
compound: O=NN1CCCCCCC1
group_label: 0
//
compound: CCCCCCCCBr
group_label: 0
//
compound: OCCCCO
group_label: 0
//
compound: CC(C)(C)c1cc([N+](=O)[O-])cc(C(C)(C)C)c1O
group_label: 1
//
compound: N#Cc1ccncc1
group_label: 0
//
compound: Nc1cccnc1
group_label: 0
//
compound: CC(C)[N+](=O)[O-]
group_label: 0

Query string: Kindly provide the recorded test outcome for the following compound: CCCCCCCCCCCCCl
Result string: 0

Query string: Kindly provide the recorded test outcome for the following compound: CCOC(=O)CC(=O)CCl
Result string: 0

Query string: Kindly provide the recorded test outcome for the following compound: Nc1nc(=S)[nH][nH]1
Result string: 0

Query string: Kindly provide the recorded test outcome for the following compound: CC1(C)[C@H](C(=O)O[C@H](C#N)c2cccc(Oc3ccccc3)c2)[C@@H]1/C=C(\Cl)C(F)(F)F
Result string: 0

Query string: Kindly provide the recorded test outcome for the following compound: CC(C)(C1CCC(O)CC1)C1CCC(O)CC1 (centres undefined)
Result string: 0

Query string: Kindly provide the recorded test outcome for the following compound: N#Cc1ccc(Cl)cc1
Result string: 0

Query string: Kindly provide the recorded test outcome for the following compound: C=C(C)C(=O)OCC(CC)CCCC (centres undefined)
Result string: 0

Query string: Kindly provide the recorded test outcome for the following compound: CCC[N+](CCC)(CCC)CCC
Result string: 0

Query string: Kindly provide the recorded test outcome for the following compound: CCN(N=O)C(N)=O
Result string: 0

Query string: Kindly provide the recorded test outcome for the following compound: CC(C)C(C)(N)C#N (centres undefined)
Result string: 0

Query string: Kindly provide the recorded test outcome for the following compound: O=C(O)CC(O)(CC(=O)O)C(=O)O
Result string: 0

###

- test_system: human Peroxisome Proliferator-activated Receptor alpha (PPARa), PPARA (gene 5465)
- test_description: NVS_NR_hPPARa: NovaScreen (NVS) Nuclear Receptor Binding Assay for human Peroxisome Proliferator-activated Receptor alpha (PPARa) (AID 2283359);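 note: activity means loss of TR-FRET signal versus DMSO baseline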
Inconclusive results are not listed. Activity calls are given as the source filed them. Rule for the calls: active = hit-call score of the fitted dose curve at least 0.9, where 1 is the maximum; inconclusive = response in the unintended direction; inactive = score below 0.9.
recorded_metric: AC50

These solved cases illustrate the format of a correct answer.
molecule: CCCCCCCCCCCCc1cccc(S(=O)(=O)O)c1
AC50: 9.25 µM (active)
--
molecule: CCC[CH2][Sn]([Cl])([Cl])[CH2]CCC
AC50: 12 µM (active)
--
molecule: CC(C)(C)c1ccccc1O
AC50: inactive
--
molecule: O=[N+]([O-])c1ccc(Cl)c([N+](=O)[O-])c1
AC50: inactive
--
molecule: N#Cc1cccnc1
AC50: inactive

Below: the item to evaluate.
Query string: Need AC50 of N#CCC#N , thanks.
Result string: inactive

###

- test_description: CCTE_Deisenroth_5AR_NBTE_acceptor: CCTE's 5alpha-reductase NanoBRET Target Engagement Assay - Autofluorescence Screen, Deisenroth Lab (AID 2284321);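 note: compound fluorescence in the acceptor channel under 460 nm excitation flags autofluorescence artifacts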
- applied_conditions: actives raise or lower the signal
Active and inactive are the calls of the source. Rule for the calls: active = hit-call score of the fitted dose curve at least 0.9, where 1 is the maximum; inactive = score below 0.9.
The reply should be one of these categories: active, inactive

compound: N#CCCC(Br)(C#N)CBr (stereo not drawn)
group_label: active
//
compound: O=c1nc(O)n(Cl)c(=O)n1Cl
group_label: inactive

Here's the next entry for you.
Query string: Kindly provide the recorded test outcome for the following compound: CC(=Cc1ccccc1)[N+](=O)[O-]
Result string: inactive

###

- test_description: CEETOX_H295R_CORTISOL: CeeTox H295R High-throughput Steroidogenesis Assay for Cortisol (AID 2283438);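 note: cortisol secreted into medium quantified by LC-MS/MS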
- applied_conditions: actives raise or lower the signal
The source made the active and inactive calls. Rule for the calls: active = hit-call score of the fitted dose curve at least 0.9, where 1 is the maximum; inactive = score below 0.9.
The reply should be one of these categories: YES for active, NO for inactive

Known results for compounds:
molecule: Cc1ccccc1OP(=O)(Oc1ccccc1C)Oc1ccccc1C
group_label: NO
//
molecule: CCC[CH2][Sn]([Cl])([Cl])[CH2]CCC
group_label: NO

Query string: Kindly provide the recorded test outcome for the following compound: CCOP(=S)(OCC)O/N=C(\C#N)c1ccccc1
Result string: YES

Query string: Kindly provide the recorded test outcome for the following compound: COc1ccc(N)cc1
Result string: NO

###

- test_description: ATG_NF_kB_CIS: Attagene CIS-FACTORIAL HepG2 Assay for human Nuclear Factor Kappa B (NF-kB) (AID 2282991)
- applied_conditions: HepG2 Attagene cis-factorial NF-kB reporter mRNA; actives raise or lower the signal
Active and inactive are the calls of the source. How the source made its calls: active means hit-call score of the fitted dose curve at least 0.9, where 1 is the maximum; inactive means score below 0.9.
The reply should be one of these categories: yes (1) (active), no (0) (inactive)

molecule: COP(=S)(OC)Oc1cc(Cl)c(I)cc1Cl
group_label: yes (1)
--
molecule: Cc1ccc(CCl)cc1
group_label: no (0)
--
molecule: Cl[C@H]1OCCO[C@@H]1Cl
group_label: no (0)

Query string: Kindly provide the recorded test outcome for the following molecule: N#Cc1ccncc1
Result string: no (0)

Query string: Kindly provide the recorded test outcome for the following molecule: Clc1cnc(Oc2ccc(Oc3ncc(Cl)cc3Cl)cc2)c(Cl)c1
Result string: no (0)

Query string: Kindly provide the recorded test outcome for the following molecule: Nc1ccc(Br)cc1
Result string: no (0)

###

- Read-out: Interleukin 17A (IL17A), IL17A (gene 3605)
- test_description: BSK_BT_xIL17A: BioMAP Diversity Plus: BT Assay for Interleukin 17A (IL17A) Biomarker Activity (AID 2284229)
- applied_conditions: primary human B cells with PBMC
The source made the active and inactive calls. How the source made its calls: active means hit-call score of the fitted dose curve at least 0.9, where 1 is the maximum; inactive means score below 0.9.
The reply should be one of these categories: t for active, f for inactive

Known results for molecules:
molecule: CCC(C)(C#N)N=NC(C)(C#N)CC (configuration not stated)
group_label: f

molecule: O=[N+]([O-])c1cccc2ccccc12
group_label: f

molecule: CC(C=O)Cc1ccc2c(c1)OCO2 (configuration not stated)
group_label: f

molecule: Oc1c(Br)cc(Br)cc1Br
group_label: f

molecule: Cc1c([N+](=O)[O-])c(C)c([N+](=O)[O-])c(C(C)(C)C)c1[N+](=O)[O-]
group_label: f

Query string: Kindly provide the recorded test outcome for the following molecule: CC(C)(C)c1cc([N+](=O)[O-])cc(C(C)(C)C)c1O
Result string: t

Query string: Kindly provide the recorded test outcome for the following molecule: Nc1ccc(N)cc1
Result string: f

###

- test_description: ATG_Oct_MLP_CIS: Attagene CIS-FACTORIAL HepG2 Assay for human Octamer-Binding Transcription Factor (Oct) (AID 2282993)
- applied_conditions: HepG2 Attagene cis-factorial Oct reporter, mRNA; actives raise or lower the signal
Activity calls are given as the source filed them. The calls were made as follows: active = hit-call score of the fitted dose curve at least 0.9, where 1 is the maximum; inactive = score below 0.9.
The reply should be one of these categories: TRUE (active), FALSE (inactive)

Known results for compounds:
molecule: COCC(=O)N(c1c(C)cccc1C)[C@H](C)C(=O)OC
group_label: FALSE

molecule: O=C(NC(=O)c1c(F)cccc1F)Nc1cc(Cl)c(F)c(Cl)c1F
group_label: FALSE

molecule: CCCCS(=O)(=O)Cl
group_label: FALSE

molecule: CN(N=O)c1ccc([N+](=O)[O-])cc1
group_label: FALSE

molecule: Nc1ccc(-c2ccccc2)cc1
group_label: FALSE

Query string: Kindly provide the recorded test outcome for the following compound: CCOCn1c(-c2ccc(Cl)cc2)c(C#N)c(Br)c1C(F)(F)F
Result string: TRUE

Query string: Kindly provide the recorded test outcome for the following compound: Cc1cc(C(F)(C(F)(F)F)C(F)(F)F)ccc1NC(=O)c1cccc(I)c1C(=O)NC(C)(C)CS(C)(=O)=O
Result string: FALSE

Query string: Kindly provide the recorded test outcome for the following compound: Cc1cc(Cl)ccc1OCCCC(=O)O
Result string: FALSE

###

- test_description: ATG_NF_kB_CIS: Attagene CIS-FACTORIAL HepG2 Assay for human Nuclear Factor Kappa B (NF-kB) (AID 2282991)
- applied_conditions: HepG2 Attagene cis-factorial NF-kB reporter mRNA; actives raise or lower the signal
The source made the active and inactive calls. How the source made its calls: active means hit-call score of the fitted dose curve at least 0.9, where 1 is the maximum; inactive means score below 0.9.
The reply should be one of these categories: t (active), f (inactive)

molecule: CC(C)(c1ccc(O)c(-c2ccccc2)c1)c1ccc(O)c(-c2ccccc2)c1
group_label: f

molecule: CNC(=O)N(C)c1nc2ccccc2s1
group_label: f

molecule: O=S(=O)(C(Cl)(Cl)Cl)C(Cl)(Cl)Cl
group_label: t

Query string: Kindly provide the recorded test outcome for the following compound: C[CH2][Hg][S]c1ccccc1C(=O)O
Result string: f
